System: SR leukemia
assayProcedure: NCI tumour cell line growth inhibition, 48 h
endpointLabel: GI50

Worked cases, GI50 given:
compound="CCC(C)C1=NC(C(=O)N/C=C\\c2c[nH]c3cc(Br)c(Br)cc23)(C(C)C)NC1=O (stereo not given)" result="17 µM"
compound=Nc1c(C(=O)c2cccc(-c3ccncc3)c2)cnn1-c1ccc(F)cc1 result="> 25 µM"
compound=COC(=O)[C@@H](C)C[C@H](Cc1ccccc1)NC(=O)c1nc([C@@H](C[C@H](C(C)C)N(C)C(=O)[C@@H](NC(=O)[C@H]2CCCCN2C)C(C)C)OC(C)=O)sc1C(C)C result="< 0.00333 µM"

# input compound: COc1ccc2nc3cc(Cl)ccc3c(N)c2c1 ; wanted: its GI50
0.236 µM

# input compound: CCOC(=O)C#Cc1c(C(=O)OCC)nnn1Cc1ccc(C(F)(F)F)cc1 ; wanted: its GI50
1.06 µM

* * *

System: NCI-H226 lung
assayProcedure: NCI tumour cell line growth inhibition, 48 h
Record y whenever TGI is at 10 µM or higher; record n when lower.

Study these solved cases before continuing.
compound="COC(=O)C1(C(=O)OC)N=C(C)OC1c1ccoc1 (stereo not given)" answerlabel=y
compound=CN(C)c1ccc(N=Nc2ccc(Br)cn2)c(O)c1 answerlabel=n
compound=O=c1ccc2[n+]([O-])c3ccc(O)cc3oc-2c1 answerlabel=y

Check if TGI >= 10 µM (inclusive). Item: CNc1nc(N)cc(=O)[nH]1
y

Check if TGI >= 10 µM (inclusive). Item: Cc1nc2c(nc1C)C(=O)C1=C(C2=O)C2C=CC1CC2
y

Check if TGI >= 10 µM (inclusive). Item: Nc1cc2ccccc2c(O)c1O
n

Check if TGI >= 10 µM (inclusive). Item: CC1[C@@H]2CC=C3C4CCC5Cc6nc7c(nc6C[C@@]5(C)C4CC(=O)[C@]32CO[C@@]1(O)C(O)CC(C)(C)O)CC1CCC2C3=C[C@H]4O[C@@]5(O[C@@](C)(CO)C[C@@H]5O)C(C)[C@@]4(O)[C@]3(C)[C@@H](O)CC2[C@]1(C)C7 (stereo not given in full)
n

Check if TGI >= 10 µM (inclusive). Item: CC(=O)OCC1OC(n2c(-c3ccc(Cl)cc3)cc(-c3ccccc3)c(C#N)c2=S)C(OC(C)=O)C(OC(C)=O)C1OC(C)=O (stereo not given)
y

Check if TGI >= 10 µM (inclusive). Item: COc1ccc(O)c2c(=O)ccccc12
y

Check if TGI >= 10 µM (inclusive). Item: CSc1cc(Cl)c(C)cc1S(=O)(=O)NC(=O)Nc1ccc(Cl)cc1
y

* * *

Test system: HL-60(TB) leukemia
assayProcedure: NCI tumour cell line growth inhibition, 48 h; in the data active = GI50 below about 0.43 µM; inactive = the rest
# valid calls are active, inactive; nothing else

molecule="CCC(C)C1=NC(C(=O)N/C=C\\c2c[nH]c3cc(Br)c(Br)cc23)(C(C)C)NC1=O (stereo not drawn)" targetdesc="HL-60(TB) leukemia" answerlabel=inactive
molecule=NC(=O)c1cc(Cl)ccc1NC(=O)COc1ccccc1 targetdesc="HL-60(TB) leukemia" answerlabel=inactive
molecule=C=C(C)[C@@H]1CC[C@]2(C)[C@H](CC[C@@H]3[C@@H]([C@@](C)(O)CCC=C(C)C)CC[C@]32C)[C@@]1(C)CCC(=O)N1CCN(C)CC1 targetdesc="HL-60(TB) leukemia" answerlabel=inactive
molecule=CNC[C@@H](NC(=O)c1ccc(-c2nc([C@H]3CC[C@H](O)[C@@H](F)C3)cnc2N)cc1F)c1cc(F)cc(Br)c1 targetdesc="HL-60(TB) leukemia" answerlabel=inactive
molecule=COc1ccc2c(c1)C(=O)c1c-2c(=O)n(CCCCCCC(=O)NO)c2ccccc12 targetdesc="HL-60(TB) leukemia" answerlabel=active
molecule=CC(C)CC(=O)[O-].CC(C)CC(=O)[O-].N.N.N.N.[Co+3].[O-][Cl+3]([O-])([O-])O.[O-][Cl+3]([O-])([O-])[O-] targetdesc="HL-60(TB) leukemia" answerlabel=inactive

For this molecule, state the assay outcome: CCCCCCCCCOc1c(OC)cc(C2CC(=O)Nc3c2c(C)nn3-c2nc3ccccc3[nH]2)cc1OC (stereo not drawn)
inactive

For this molecule, state the assay outcome: Oc1cc(Cn2cnc3c(Cl)nc(Cl)nc32)ccc1C12CC3CC(CC(C3)C1)C2
inactive
